FYI, the data here is from paper PMC9352680.

Biological target: T1, PUF4 RNA-binding domain (Saccharomyces cerevisiae, UniProt P25339 537-888)
T1 sequence: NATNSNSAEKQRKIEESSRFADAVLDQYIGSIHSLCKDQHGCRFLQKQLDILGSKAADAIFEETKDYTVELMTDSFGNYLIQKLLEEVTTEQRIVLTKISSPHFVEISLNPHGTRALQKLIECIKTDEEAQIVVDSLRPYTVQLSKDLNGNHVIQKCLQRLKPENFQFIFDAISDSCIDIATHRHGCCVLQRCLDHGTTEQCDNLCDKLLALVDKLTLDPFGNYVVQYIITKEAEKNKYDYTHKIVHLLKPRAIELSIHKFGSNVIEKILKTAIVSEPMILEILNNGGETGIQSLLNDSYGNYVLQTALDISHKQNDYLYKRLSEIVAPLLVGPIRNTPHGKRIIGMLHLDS
Assay: Mg; RNA-MaP; 20 mM Na-HEPES pH 7.4, 30 mM KOAc, 0.75 mM MgCl2, 0.1% Tween-20, 5% glycerol, 0.1 mg/mL BSA, 2 mM DTT; 25 C; 0.0125-409.6 nM protein
Conditions: tags: N-His6-TEV cleaved; C-SNAP kept, Cy3B-labelled; label: tethered on chip by stalled RNA polymerase
Note to self: Kd under 20 nM means Fulfilled, ties and anything higher get Not fulfilled.

Example cases with answers are listed next.
{"binder": "UCUCUUUUACACUAUUAUUUCUCUU (ssRNA) [Id_ii_S1_P4E.4_K4.3_C4.2_[C-2T]_H4.3_A4.1_F4.1_T4.2_[G10T]]", "class-name": "Not fulfilled"}
{"binder": "Ic_S4_P4E.1_K4.1_C4.1_H4.1_A4.1_[T7C]_F4.1_[T8A]_[A9C]_T4.1 (ssRNA) RNA: UUUGACAACUGAUCGUUCUUUCUUGUAUACACUUCUUUCUCGAUCAGUUGUCUUU", "class-name": "Not fulfilled"}
{"binder": "Ic_S2_P5E.1_K5.1_C5.1_H5.1_A5.1_[T5C]_[T6C]_F5.1_[T9C]_[A10C]_T5.1 (ssRNA) RNA: UUUGAUUAAUAUGAUAUCGUUCUUUCUUGUACCAUCCUUCUUUCUCGAUAUCAUAUUAAUCUUU", "class-name": "Fulfilled"}

In plain terms, does Ib_S4_P5E.1_K5.1_C5.1_H5.1_A5.1_[A7C]_F5.1_[T9C]_T5.1 (ssRNA) RNA: UUUGACAACUGAUCGUUCUUUCUUGUAUUCUCAUUCUUUCUCGAUCAGUUGUCUUU come in under 20 nM for Kd?
Not fulfilled

In plain terms, does UCUCUUUGUUUAGUAUCUCUU (ssRNA) [Ib_S1_P4E.1_K4.1_C4.1_H4.1_[A4T]_A4.1_[T7G]_F4.1_T4.1] come in under 20 nM for Kd?
Not fulfilled

In plain terms, does Id_ii_S2_P5E.4_K5.3_C5.2_[C-2A]_[T-1A]_H5.3_A5.1_F5.1_T5.2_[T11C]_[A12C] (ssRNA) RNA: UUUGAUUAAUAUGAUAUCGUUCUUUCUAAACACUUAUUACCUUCUUUCUCGAUAUCAUAUUAAUCUUU come in under 20 nM for Kd?
Not fulfilled

In plain terms, does ACAAACAAUAUAUAUUAUCACAAAC (ssRNA) [Id_ii_S3_P4E.3_K4.2_C4.2_[C-2A]_[T-1A]_H4.2_A4.1_F4.1_T4.2_[G10T]_[T11C]] come in under 20 nM for Kd?
Not fulfilled

In plain terms, does UCUCUUCAUAUAUUAUUAACUCUCUU (ssRNA) [Id_ii_S1_P5E.3_K5.2_C5.2_[T-1A]_H5.2_A5.1_F5.1_T5.2_[T11A]_[A12C]] come in under 20 nM for Kd?
Not fulfilled

In plain terms, does UCUCUUUGUAAUCGCUCUCUU (ssRNA) [Ic_S1_P4E.1_K4.1_C4.1_H4.1_A4.1_[T5A]_[A6T]_[T7C]_F4.1_[T8G]_[A9C]_T4.1] come in under 20 nM for Kd?
Not fulfilled

In plain terms, does Ic_S4_P5E.1_K5.1_C5.1_H5.1_A5.1_[T5C]_[T6G]_[A7C]_F5.1_[T9A]_[A10C]_T5.1 (ssRNA) RNA: UUUGACAACUGAUCGUUCUUUCUUGUACGCUACUUCUUUCUCGAUCAGUUGUCUUU come in under 20 nM for Kd?
Fulfilled

In plain terms, does Ie_S2_P4E.1_K4.1_C4.1_H4.1_[+3CTCTC]_A4.1_F4.1_T4.1 (ssRNA) RNA: UUUGAUUAAUAUGAUAUCGUUCUUUCUUGUCUCUCAUAUUAUUCUUUCUCGAUAUCAUAUUAAUCUUU come in under 20 nM for Kd?
Not fulfilled

In plain terms, does Ie_S4_P4E.1_K4.1_C4.1_H4.1_[+3T]_A4.1_F4.1_T4.1 (ssRNA) RNA: UUUGACAACUGAUCGUUCUUUCUUGUUAUAUUAUUCUUUCUCGAUCAGUUGUCUUU come in under 20 nM for Kd?
Fulfilled
